biological target: human cardiac ion channel proteins hKir3.1/Kir3.4 (Homo sapiens, UniProt P48544+P48549); construct: expressed in transfected cells; assay: Atomic Absorption Screening (AAS) Rb efflux assay of hKir3.1/Kir3.4 block, carbachol/high K+ stimulated, 10-pt or 7-pt CR; type: cell-based; conditions: 10-pt CR (0.003 to 67 μmol/L), AAS Rb efflux, CHO-K1 cells expressing hKir3.1/Kir3.4; mean of >4 replicates; read-out: IKACh IC50 10-pt CR, AAS
Sequence (P48549 whole entry): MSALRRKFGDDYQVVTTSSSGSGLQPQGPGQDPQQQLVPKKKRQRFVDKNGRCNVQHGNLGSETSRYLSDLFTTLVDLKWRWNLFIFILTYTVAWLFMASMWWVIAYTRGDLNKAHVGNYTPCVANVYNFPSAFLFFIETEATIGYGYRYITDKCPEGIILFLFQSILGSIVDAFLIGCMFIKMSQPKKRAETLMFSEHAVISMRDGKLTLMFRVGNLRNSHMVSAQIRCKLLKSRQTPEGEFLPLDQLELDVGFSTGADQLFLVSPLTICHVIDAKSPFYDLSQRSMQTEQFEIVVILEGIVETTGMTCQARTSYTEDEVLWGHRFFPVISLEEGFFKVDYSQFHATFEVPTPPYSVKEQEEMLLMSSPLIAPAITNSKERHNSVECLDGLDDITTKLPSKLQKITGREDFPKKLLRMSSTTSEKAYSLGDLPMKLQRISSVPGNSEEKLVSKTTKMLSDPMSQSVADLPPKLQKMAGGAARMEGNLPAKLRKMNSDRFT
Sequence (P48544 whole entry): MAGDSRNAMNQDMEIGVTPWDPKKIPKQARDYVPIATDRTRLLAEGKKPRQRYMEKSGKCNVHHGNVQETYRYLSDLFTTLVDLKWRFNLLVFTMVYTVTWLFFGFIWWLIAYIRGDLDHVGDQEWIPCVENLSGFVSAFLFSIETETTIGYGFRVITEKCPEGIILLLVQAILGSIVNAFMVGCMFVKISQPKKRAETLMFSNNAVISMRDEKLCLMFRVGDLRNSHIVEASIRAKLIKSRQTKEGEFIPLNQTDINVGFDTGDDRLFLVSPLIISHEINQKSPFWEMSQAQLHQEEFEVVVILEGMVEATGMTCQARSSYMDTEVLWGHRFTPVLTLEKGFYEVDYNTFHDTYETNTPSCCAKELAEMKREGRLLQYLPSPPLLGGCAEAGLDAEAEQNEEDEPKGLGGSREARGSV
Measured quantity: IC50 (µM)

>>> test_result("CC(C)[C@@H](CN1CCC(O)CC1)N(C)C(=O)c1ccc(Cl)cc1")
1.1
>>> test_result("CSc1ccc(C(=O)N(C)[C@@H](CC(C)C)CN2CC(O)C2)cc1")
0.83
>>> test_result("CC(C)[C@@H](CN1CCC1)N(C)C(=O)c1ccc(Br)cc1.O=C(O)CCC(=O)O")
1.8
>>> test_result("CN(C(=O)c1ccccc1)[C@H](CN1CC(O)C1)C1CCCCC1")
1.1
>>> test_result("Cc1cc(C(=O)N(C)C(CN2CC(O)C2)C2CCCC2)ccc1F (single isomer, unassigned) [32.4, isomer 2]")
0.98
>>> test_result("Cc1c(F)cccc1C(=O)N(C)[C@H](CN1CCCC1)C(C)C")
14
>>> test_result("CCC[C@@H](CN1CCC1)N(C)C(=O)c1ccc(Br)cc1")
3.1
>>> test_result("CCC[C@@H](CN1CC(O)C1)N(C)C(=O)c1ccc(F)c(Cl)c1")
0.8
>>> test_result("CC(C)[C@@H](CN1CC(F)C1)N(C)C(=O)c1ccc(F)c(C(F)(F)F)c1")
3.6
>>> test_result("CC[C@H](C)[C@@H](CN1CC(O)C1)N(C)C(=O)c1ccc(C#N)cc1")
12
>>> test_result("CCN(C(=O)c1ccc(Br)cc1)[C@H](CN1CCCC1)C(C)C")
11
>>> test_result("CC[C@H](C)[C@@H](CN1CC(O)C1)N(C)C(=O)c1ccccc1")
12
>>> test_result("CC(C)[C@@H](CN1CCC1)N(C)C(=O)c1cccc(C(F)(F)F)c1")
2.3
>>> test_result("CC(C)[C@@H](CN1CCCC1)N(C)C(=O)c1c(F)cccc1F")
9.8
>>> test_result("CO[C@H](C)[C@@H](CN1CCCC1)N(C)C(=O)c1ccc(Cl)cc1")
7.2
>>> test_result("CC(C)[C@@H](CN1CC(C)(O)C1)N(C)C(=O)c1ccc(Cl)cc1")
8.6
>>> test_result("CN(C(=O)c1ccc(C#N)cc1)[C@H](CN1CC(O)C1)C1CCCCC1")
0.41
>>> test_result("CN(C(=O)c1ccc(Br)cc1)C(C)(C)CN1CCCC1")
14

---

Target: human cardiac ion channel proteins hKir3.1/Kir3.4 (Homo sapiens, UniProt P48544+P48549)
Construct: expressed in transfected cells
Experiment: Atomic Absorption Screening (AAS) Rb efflux assay of hKir3.1/Kir3.4 block, carbachol/high K+ stimulated, 10-pt or 7-pt CR
Format: cell-based
Conditions: 10-pt CR (0.003 to 67 μmol/L), AAS Rb efflux, CHO-K1 cells expressing hKir3.1/Kir3.4; mean of >4 replicates; read-out: IKACh IC50 10-pt CR, AAS
Procedure: Human KCNJ3 encoding Kir3.1 (Genbank acc. No. NM_002239) was inserted between EcoRI and NotI in the pIRESneo3 vector (Clontech Laboratories, Inc. CA, USA). […] The blocking effects of compounds on the human cardiac ion channel proteins hKir3.1/Kir3.4 were assessed in CHO-K1 cells stably expressing the channel proteins using Atomic Absorption Screening (AAS). […]
pIC50: −log10 of the molar value.
Measured quantity: pIC50

>>> test_result("CC(C)[C@@H](CN1CC[C@@H](O)C1)N(C)C(=O)c1ccc(F)c(Cl)c1")
4.92
>>> test_result("COC1CCN(C[C@H](C(C)C)N(C)C(=O)c2ccc(C)c(C)c2)CC1")
5.60
>>> test_result("COC1CCN(C[C@H](C(C)C)N(C)C(=O)c2ccc(F)c(Cl)c2)CC1")
5.52
>>> test_result("CCC[C@@H](CN1CC(O)C1)N(C)C(=O)c1ccc(F)c(C(F)(F)F)c1")
6.24
>>> test_result("COc1ccc(C(=O)N(C)[C@H](CN2CC(O)C2)C2CCC2)c(F)c1")
5.96
>>> test_result("Cc1cc(C(=O)N(C)[C@@H](C)CN2CC(O)C2)ccc1Cl")
5.21
>>> test_result("CCC[C@@H](CN1CC(O)C1)N(C)C(=O)c1cccc(C)c1")
5.37
>>> test_result("CN(C(=O)c1ccccc1)[C@@H](CN1CC(O)C1)C1CCC1")
4.89
>>> test_result("CC(C)[C@@H](CN1CCCC1)N(C)C(=O)c1ccc(Br)cc1")
5.34

---

biological target: human cardiac ion channel proteins hKir3.1/Kir3.4 (Homo sapiens, UniProt P48544+P48549); construct: expressed in transfected cells; assay: Atomic Absorption Screening (AAS) Rb efflux assay of hKir3.1/Kir3.4 block, carbachol/high K+ stimulated, 10-pt or 7-pt CR; format: cell-based; settings: 7-pt CR (0.037 to 27 μmol/L), AAS Rb efflux, CHO-K1 cells expressing hKir3.1/Kir3.4; mean of >3 replicates; read-out: IKACh IC50 7-pt CR, AAS
Rule: measured IC50 below 2 µM gets Satisfied; anything equal to or greater than 2 µM gets Not satisfied.

>>> cat("CC(C)[C@@H](CN1CCCC1)N(C)C(=O)c1cc(F)ccc1F [Example 16.22]")
"Not satisfied"
>>> cat("CC(C)[C@H](CN1CCCC1)N(C)C(=O)c1ccc(Cl)cc1F [Example 16.59]")
"Not satisfied"
>>> cat("CC(C)[C@@H](CN1CCCC1)N(C)C(=O)c1c(F)cccc1C(F)(F)F [Example 16.19]")
"Not satisfied"
>>> cat("Cc1cccc(C(=O)N(C)[C@H](CN2CCCC2)C(C)C)c1 [Example 12.2]")
"Not satisfied"
>>> cat("CC(C)[C@H](CN1CCCC1)N(C)C(=O)c1ccc(Cl)c(Cl)c1 [Example 16.56]")
"Not satisfied"
>>> cat("CC(C)[C@@H](CN1CCCCC1)N(C)C(=O)c1ccc(Cl)cc1F [Example 16.31]")
"Not satisfied"
>>> cat("CC(C)[C@@H](CN1CCCC1)N(C)C(=O)c1cccc(Cl)c1F [Example 16.17]")
"Satisfied"
>>> cat("Cc1cc(C(=O)N(C)[C@H](CN2CCCC2)C(C)C)ccc1F [Example 12.1]")
"Satisfied"
>>> cat("CC(C)[C@@H](CN1CCCC1)N(C)C(=O)c1ccc(OC(F)(F)F)cc1 [Example 16.15]")
"Not satisfied"

---

The entries below come with measured pIC50 values attached.
biological target: human cardiac ion channel proteins hKir3.1/Kir3.4 (Homo sapiens, UniProt P48544+P48549); construct: expressed in transfected cells; test: Atomic Absorption Screening (AAS) Rb efflux assay of hKir3.1/Kir3.4 block, carbachol/high K+ stimulated, 10-pt or 7-pt CR; assay type: cell-based; settings: 10-pt CR (0.003 to 67 μmol/L), AAS Rb efflux, CHO-K1 cells expressing hKir3.1/Kir3.4; mean of >4 replicates; read-out: IKACh IC50 10-pt CR, AAS
pIC50: −log10 of the molar value.
Measured quantity: pIC50

>>> test_result("CN(C(=O)c1ccc(F)cc1F)[C@@H](CN1CC(O)C1)C1CCC1 [Example 35.10]")
4.82
>>> test_result("Cc1cc(C(=O)N(C)[C@H](CN2C[C@@H](O)[C@H](O)C2)C(C)C)ccc1Cl [Example 8.16]")
4.80
>>> test_result("CC[C@@H](CN1CCCC1)N(C)C(=O)c1ccc(Br)cc1 [Example 17.1]")
4.92
>>> test_result("CC(C)[C@@H](CN1CCC1)N(C)C(=O)c1ccc(F)c(Cl)c1 [Example 1.12]")
5.54
>>> test_result("CC[C@@H](CN1CC(O)C1)N(C)C(=O)c1ccc(Cl)c(F)c1 [Example 39.11]")
5.80
>>> test_result("CC(C)[C@@H](CN1CCC1)N(C)C(=O)c1ccccc1 [Example 1.14]")
5.18
>>> test_result("CN(C(=O)c1ccc(F)c(Cl)c1)C(CN1CC(O)C1)C1CCCC1 (single isomer, unassigned) [32.7, isomer 1]")
7.12
>>> test_result("CN(C(=O)c1cccc(C(F)F)c1)[C@@H](CN1CC(O)C1)C1CCC1 [Example 35.8]")
5.10

---

Biological target: human cardiac ion channel proteins hKir3.1/Kir3.4 (Homo sapiens, UniProt P48544+P48549)
Construct: expressed in transfected cells
Assay: Atomic Absorption Screening (AAS) Rb efflux assay of hKir3.1/Kir3.4 block, carbachol/high K+ stimulated, 10-pt or 7-pt CR
Assay type: cell-based
Settings: 10-pt CR (0.003 to 67 μmol/L), AAS Rb efflux, CHO-K1 cells expressing hKir3.1/Kir3.4; mean of >4 replicates; read-out: IKACh IC50 10-pt CR, AAS
Protocol: Human KCNJ3 encoding Kir3.1 (Genbank acc. No. NM_002239) was inserted between EcoRI and NotI in the pIRESneo3 vector (Clontech Laboratories, Inc. CA, USA). […] The blocking effects of compounds on the human cardiac ion channel proteins hKir3.1/Kir3.4 were assessed in CHO-K1 cells stably expressing the channel proteins using Atomic Absorption Screening (AAS). […]
pIC50: −log10 of the molar value. Structures can show the parent of a compound that is named as a salt.
Measured quantity: pIC50

>>> test_result("CC(C)[C@@H](CN1CCC1)N(C)C(=O)c1ccc(F)c(C(F)(F)F)c1")
5.92
>>> test_result("CO[C@H](C)[C@@H](CN1CCCC1)N(C)C(=O)c1ccc(F)c(Cl)c1")
5.14
>>> test_result("C[C@@H](CN1CC(O)C1)N(C)C(=O)c1ccc(Br)cc1")
5.14
>>> test_result("CN(C(=O)c1ccc(F)c(F)c1)[C@H](CN1CC(O)C1)C1CCC1")
6.39
>>> test_result("CCC[C@@H](CN1CC(OCC)C1)N(C)C(=O)c1ccc(Cl)cc1")
6.37
>>> test_result("CCc1ccc(C(=O)N(C)[C@H](CN2CC(O)C2)[C@@H](C)CC)cc1")
6.66
>>> test_result("CCC[C@@H](CN1CC[C@H](O)C1)N(C)C(=O)c1ccc(Cl)cc1")
5.26
>>> test_result("Cc1ccc(F)c(C(=O)N(C)[C@H](CN2CC(O)C2)C2CCC2)c1")
6.09
>>> test_result("CCN(C(=O)c1ccc(Cl)cc1)[C@H](CN1CCCC1)C(C)C")
5.13
>>> test_result("CN(C(=O)c1ccc(C#N)cc1)[C@@H](CN1CC(O)C1)C1CCC1")
4.85
>>> test_result("CC[C@@H](CN1CCCC1)N(C)C(=O)c1ccc(Cl)c(Cl)c1")
5.85
>>> test_result("Cc1ccc(C(=O)N(C)[C@H](CN2CCCC(F)(F)C2)C(C)C)cc1C")
4.96
>>> test_result("CN(C(=O)c1ccc(F)cc1)[C@@H](CN1CC(O)C1)C1CCC1")
4.96
>>> test_result("Cc1cccc(C(=O)N(C)[C@H](CN2CCCCC2)C(C)C)c1")
5.03
>>> test_result("CCC[C@@H](CN1CC(O)C1)N(C)C(=O)c1ccc(Cl)cc1 [Example 8.2, hydrochloride]")
6.06
>>> test_result("Cc1ccc(C(=O)N(C)[C@H](CN2CCC2)C2CC2)cc1C")
5.68
>>> test_result("CC(C)C[C@@H](CN1CC(O)C1)N(C)C(=O)c1ccc(Cl)cc1")
6.96
>>> test_result("Cc1cc(C(=O)N(C)[C@H](CN2CCCC2)C2CC2)ccc1F")
5.44
>>> test_result("CC(C)[C@@H](CN1CCCCC1)N(C)C(=O)c1cccc(Cl)c1")
4.82
>>> test_result("COC1CCN(C[C@H](C(C)C)N(C)C(=O)c2ccc(Br)cc2)CC1")
5.49
>>> test_result("CN(C(=O)c1ccc(Cl)cc1)[C@@H](CN1CC(O)C1)C1CCC1")
5.47
>>> test_result("CN(C(=O)c1ccc(Cl)cc1)C(CN1CC(O)C1)C1CCCC1 (single isomer, unassigned) [32.3, isomer 1]")
7.26
>>> test_result("CN(C(=O)c1ccc(F)c(F)c1)[C@H](CN1CC(O)(C2CC2)C1)C1CC1")
5.51
>>> test_result("CN(C(=O)c1ccc(F)cc1F)[C@H](CN1CC(O)C1)C1CCC1")
5.11
>>> test_result("CN(C(=O)c1ccc(Cl)cc1)[C@H](CN1CC(O)C1)C1CCCCC1")
7.31
>>> test_result("CCC[C@@H](CN1CC(O)C1)N(C)C(=O)c1ccc(F)c(F)c1")
5.77
>>> test_result("CN(C(=O)c1ccc(F)cc1Cl)C(CN1CC(O)C1)C1CCCC1 (single isomer, unassigned) [32.6, isomer 1]")
5.96
>>> test_result("CC(C)[C@@H](CN1CC(C)(O)C1)N(C)C(=O)c1ccc(F)c(C(F)(F)F)c1")
5.28
>>> test_result("CN(C(=O)c1ccc(Cl)cc1)[C@H](CN1CCCC1)C1CC1")
5.24
>>> test_result("COC[C@@H]1CCCN1C[C@H](C(C)C)N(C)C(=O)c1ccc(Br)cc1")
5.08
>>> test_result("CC(C)[C@@H](CN1CCCC1)N(C)C(=O)c1ccc(F)cc1Cl")
5.38
>>> test_result("COCCN(C(=O)c1ccc(Cl)cc1)[C@H](CN1CCCC1)C(C)C")
5.24
>>> test_result("CN(C(=O)c1cccc(C#N)c1)[C@H](CN1CC(O)C1)C1CCCCC1")
6.04
>>> test_result("CC(C)[C@@H](CN1CCC1)N(C)C(=O)c1cccc(Cl)c1")
4.92
>>> test_result("Cc1cc(C(=O)N(C)[C@H](CN2C[C@H](O)[C@@H](O)C2)C(C)C)ccc1F")
5.37
